# System: CAKI-1
# measurement-notes: NCI tumour cell line growth inhibition, 48 h
Calls of active or inactive are those of the source. Cut-off read from the data, not from the text of the source: active = GI50 up to about 1.1 µM and inactive = higher.
Give your call using only these classes: active, inactive

Examples from the recorded data:
compound | category-label
N#Cc1nc(C2CC2)oc1N | inactive
COC(=O)[C@]1(CCC(C)=O)C(=O)C=CN([C@H](C)c2ccccc2)[C@@H]1Cc1ccc(OC)c(OCc2ccccc2)c1I | inactive
CCCCC1(O)CC2CC1C(C)C2(C)C (stereo not drawn) | inactive
CC(NC(=O)N(C)C)NC(=O)N(C)C | inactive
COC1=CC(=O)c2c(c(COC(C)=O)cn2C)C1=O | active
O=c1cnn(C/C=C/CP(=O)(O)O)c(=O)[nH]1 | inactive
O=[N+]([O-])c1ccc(C2ON=C(c3ccccc3)N2C23CC4CC(CC(C4)C2)C3)cc1 (stereo not drawn) | inactive

Next compound, please.
### Prompt Returns: the outcome recorded for COc1ccc(C(=O)c2cc(OC)c(OC)c(OC)c2)cc1 in this assay.
### Response active

----------
# Test system: DMS-273
# measurement-notes: NCI tumour cell line growth inhibition, 48 h
Active and inactive are the calls of the source. Rule as the data show it: active = GI50 up to about 1.1 µM and inactive = higher.
recorded-endpoint: GI50

compound | test-value
N#CC1(Cc2ccccc2Cl)c2ccccc2C=CN1C(=O)c1ccccc1 (stereo not drawn) | > 100 µM (inactive)
OCC1=CC(NC2CC(CO)C(O)C(O)C2O)C(O)C(O)C1O (stereo not drawn) | > 100 µM (inactive)

The record that follows has no GI50 shown yet.
### Prompt Any idea what its GI50 is? The compound is CCCCCCCCCCNC1CC(OC2CC(O)(C(O)CO)Cc3c(O)c4c(c(O)c32)C(=O)c2c(OC)cccc2C4=O)OC(C)C1O (stereo not drawn)
### Response 1.79 µM (inactive)

----------
# System: HT-29
# measurement-notes: NCI tumour cell line growth inhibition, 48 h
Activity calls are given as the source filed them. Rule as the data show it: active = GI50 up to about 1.1 µM and inactive = higher.
Your answer must be one of the following: active, inactive

compound | category-label
O=S(=O)(O)c1cccc2ccc(O)c(/N=N\c3ccc(S(=O)(=O)c4ccc(/N=N/c5c(O)ccc6cccc(S(=O)(=O)O)c56)cc4)cc3)c12 | inactive
NNC(=O)c1nn[nH]c1C(=O)NN | inactive
Oc1ccc2ccccc2c1C(c1ccc(Cl)cc1)c1c(O)ccc2ccccc12 | inactive
CC1OC(OC2C(O)C(O)C(O)C(O)C2O)C(N)CC1NC(=N)C(=O)O (configuration not stated) | inactive

### Prompt Write down the call the test reported for this compound. Item: CCOC(=O)CC1NC(=O)CS1 (configuration not stated)
### Response inactive

### Prompt Outcome logged for OCCO[P+]1(OCCO)n2c3ccc2C(c2ccccc2)=C2C=CC(=N2)C(c2ccccc2)=c2ccc(n21)=C(c1ccccc1)C1=NC(=C3c2ccccc2)C=C1 in this assay:
### Response active

### Prompt I would be grateful if you could indicate the recorded call for O=C1NC2(CCCC2)C(=O)C12CCCC2 .
### Response inactive

----------
For each record, write down the corresponding GI50.
# Tested on: SR
# measurement-notes: NCI tumour cell line growth inhibition, 48 h
Active and inactive are the calls of the source. Cut-off read from the data, not from the text of the source: active = GI50 up to about 1.1 µM and inactive = higher.

Recorded results for 5 compounds are shown here.
compound | GI50
COC(=O)CSSCc1ccc([N+](=O)[O-])cc1 | 12 µM (inactive)
O=c1sc2c(s1)SSSSS2 | > 50 µM (inactive)
C1CNCCN2CCCNCCN(C1)CC2 | > 100 µM (inactive)
Cc1oc(N)c(S(=O)(=O)/C(C#N)=C/c2ccccc2[N+](=O)[O-])c1C | 14 µM (inactive)
Cc1ccc(/N=N/C(=O)NNc2ccc(C)cc2Br)c(Br)c1 | 14.7 µM (inactive)

Please give GI50, item by item, for the list that follows.
1. CCCCCCCCCCCCCCCC(=O)OCC1OC(n2ccc(N)nc2=O)C(O)C1O (centres undefined)
2. COc1ccc(C(=O)O[C@H]2CC[C@@]3(C)[C@@H]4CC[C@H]5[C@]6(O)C[C@H](O)[C@@]7(O)[C@@H](CN8C[C@@H](C)CC[C@H]8[C@@]7(C)O)[C@]6(O)C[C@@]53OC24O)cc1OC
3. Nc1nc(N)c2c3c(cnc2n1)CC(c1ccccc1)CC3 (centres undefined)
4. CC(C)c1cccc(C(=O)NCCN(C)C)c1[N+](=O)[O-]
5. COc1cc(C2=N/C(=C/c3cccs3)C(=O)O2)cc(OC)c1OC
6. O=C1NC(O)c2cc3ccccc3cc2O1 (centres undefined)
7. Cc1cc(C)c(S(=O)(=O)N(CCCN)OCCCON(CCCN)S(=O)(=O)c2c(C)cc(C)cc2C)c(C)c1
8. COC(=O)C(C(=O)C(=O)Nc1c(Cl)cc([N+](=O)[O-])cc1Cl)c1csc(-n2nc(C3=CCCCC3)cc2-c2ccccc2)n1 (centres undefined)

### Response
1. 1.5 µM (inactive)
2. 74.8 µM (inactive)
3. 10.6 µM (inactive)
4. > 100 µM (inactive)
5. > 100 µM (inactive)
6. 24.3 µM (inactive)
7. 2.07 µM (inactive)
8. 22.5 µM (inactive)

For each of the compounds below, note its GI50.
1. CCc1cc(Cc2cc(CC)c(NC(=O)C3=CC(=O)CC(c4ccc(OC)cc4)O3)c(CC)c2Cl)c(Cl)c(CC)c1NC(=O)C1=CC(=O)CC(c2ccc(OC)cc2)O1 (centres undefined)
2. CCOC(=O)c1c(N2CCCC2)ncn(C)c1=S
3. N#CNC(=N)NC(=O)/C=C/C=C/c1ccc(Cl)cc1
4. Oc1ccc2ccccc2c1C(c1ccc(Cl)cc1)c1c(O)ccc2ccccc12
5. Nc1c2ccccc2nc2ccc3c(=O)cc(-c4ccccc4)oc3c12
6. CC(O)C1CC1(CO)CNc1cc(Cl)nc(N)n1 (centres undefined)

### Response
22.5 µM (inactive)
> 100 µM (inactive)
72.9 µM (inactive)
2.82 µM (inactive)
0.393 µM (active)
> 100 µM (inactive)

----------
# Test system: M14
# measurement-notes: NCI tumour cell line growth inhibition, 48 h
Activity calls are given as the source filed them. No stated cut-off is given here; in the data, active = GI50 up to about 1.1 µM and inactive = higher.
Choose one outcome from this list and give only that: class 1 = active, class 0 = inactive

Observe how each entry below is paired with its result.
compound | category-label
CCOc1ccccc1/C=C(/C#N)C(N)=O | class 0
O=[N+]([O-])c1ccc(C2ON=C(c3ccccc3)N2C23CC4CC(CC(C4)C2)C3)cc1 (centres undefined) | class 0
COc1cc(-c2cc(O)c3ccccc3n2)cc(OC)c1OC | class 0
CC(=O)OCCOCn1c2c(c(=S)[nH]c1=O)CCC2 | class 0
Cc1ccn2c(=O)cc(CN3CCOCC3)nc2c1 | class 0

### Prompt Hi, sorry to bother you, what did the test record for OCCCNCC(O)c1ccc(OCc2ccccc2)c(OCc2ccccc2)c1 (centres undefined) ?
### Response class 0

### Prompt Would you mind telling me which call this test gave OCCO[P+]1(OCCO)n2c3ccc2C(c2ccccc2)=C2C=CC(=N2)C(c2ccccc2)=c2ccc(n21)=C(c1ccccc1)C1=NC(=C3c2ccccc2)C=C1 ?
### Response class 1

### Prompt Record request — test call for Cc1nc2n(c1/C=C1/C(=O)Nc3ccccc31)CCS2
### Response class 0

### Prompt For O=C1C(Sc2ccc3ccccc3c2)=C(Sc2ccc3ccccc3c2)C(=O)c2ccccc21 , which call appears in the assay record?
### Response class 0

### Prompt Hi, sorry to bother you, what did the test record for C=CCOC(=O)Cn1cc(C)c(=O)[nH]c1=O ?
### Response class 0

### Prompt Could you kindly confirm the outcome this assay logged for COC(=O)C1SC(N(C)c2ccccc2)=NC12c1ccccc1Nc1ccccc12 (centres undefined) ?
### Response class 0

### Prompt Please let me know the test result on file for CC(=O)Nc1ccccc1[S+]([O-])c1ccccc1 (centres undefined) .
### Response class 0

### Prompt Identify the outcome logged in this assay for the compound shown: N#CC(/C(=N/NC(=O)C(=O)NN)C(=O)Nc1nc([N+](=O)[O-])cs1)c1ccc(Cl)cc1 (centres undefined)
### Response class 0

### Prompt Called result for N#CCCN(C(=O)Nc1ccc(NC(=O)N(CCC#N)c2ccccc2)cc1)c1ccccc1
### Response class 0

### Prompt Please let me know the test result on file for COc1cc(N(CCC#N)CCC#N)ccc1/C=N\NC(=O)c1ccc(C)cc1 .
### Response class 0

----------
# Test system: A498
# measurement-notes: NCI tumour cell line growth inhibition, 48 h
Activity calls are given as the source filed them. No stated cut-off is given here; in the data, active = GI50 up to about 1.1 µM and inactive = higher.
For each entry below, report its GI50 value.

// below: answered compounds
compound | GI50
N#C/C(N)=C(C#N)/N=C/Nc1ccccc1N | > 100 µM (inactive)
O=C(O)c1ccccc1-c1ccccc1C(=O)Nc1ccc2c(c1)nc(O)c1ccccc12 | 34.3 µM (inactive)
O=C(O)/C(=C\c1ccc(O)cc1)c1cccc2ccccc12 | > 100 µM (inactive)

Pending compound:
### Prompt Report GI50 for [N-]=[N+]=NC(c1cn(C2CC(O)C(CO)O2)c(=O)[nH]c1=O)C(Cl)I (centres undefined) tested on A498.
### Response > 100 µM (inactive)
